Hey, just so you know, these numbers are from patent US20200140532A1.

Target: T1, recombinant bovine Aggrecan G1-IGD-G2 (bovine, UniProt P13608 20-684, limits assumed)
T1 construct: also called Bov G1-IGD-G2; Boy G1-IGD-G2
Assay: SPR (ProteOn), off-rate only indicative
// Not met strictly below 0.03 s⁻¹ in koff; Met otherwise

>  <BINDER>
C01010046 (601E08-ALB26) (VHH, not shown: small tags and cut ends) VHH: DVQLVESGGGLVQPGGSLRLSCTASGRTFSSYAVGWFRQAPGKEREFVAAISRSGRSTYYADSVKGRFTISRDNSKNTVYLQMNSLRPEDTAVYYCAAGLSYYSPHAYYDYWGQGTLVTVSS

>  <ASSIGNED_CLASS>
Not met

$$$$
>  <BINDER>
C01010094 (604F02-ALB26) (VHH, not shown: small tags and cut ends, also called C010100094) VHH: DVQLVESGGGLVQPGGSLRLSCAASGRTFSSYTMGWFRQAPGKEREFVAAISWSGGRTYYADSVKGRFTISRDNSKNTVYLQMNSLRPEDTAVYYCAAYRRRRASSNRGLWDYWGQGTLVTVSS

>  <ASSIGNED_CLASS>
Met

$$$$
>  <BINDER>
C01010097 (608A05-ALB26) (VHH, not shown: small tags and cut ends) VHH: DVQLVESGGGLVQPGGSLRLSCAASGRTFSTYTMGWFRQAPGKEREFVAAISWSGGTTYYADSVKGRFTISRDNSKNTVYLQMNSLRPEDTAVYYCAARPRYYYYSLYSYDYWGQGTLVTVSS

>  <ASSIGNED_CLASS>
Not met

$$$$
>  <BINDER>
C01010060 (606A07-ALB26) (VHH, not shown: small tags and cut ends) VHH: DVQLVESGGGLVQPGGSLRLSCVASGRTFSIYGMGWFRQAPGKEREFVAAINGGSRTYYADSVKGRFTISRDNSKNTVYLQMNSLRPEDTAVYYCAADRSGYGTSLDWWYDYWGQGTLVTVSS

>  <ASSIGNED_CLASS>
Not met

$$$$
>  <BINDER>
C01010054 (114F08-ALB26) (VHH, not shown: small tags and cut ends, also called C010100054) VHH: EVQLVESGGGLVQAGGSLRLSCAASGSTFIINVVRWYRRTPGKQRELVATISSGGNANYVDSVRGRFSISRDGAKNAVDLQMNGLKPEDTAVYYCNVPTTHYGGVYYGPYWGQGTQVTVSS

>  <ASSIGNED_CLASS>
Met

$$$$
